- targetUnderTest: kinases (Homo sapiens)
- Construct: purchased Eurofins/DiscoveRx; host or cells: E. coli BL21-derived host (T7 phage display) for most kinases; HEK-293 for the rest
- experimentNotes: KINOMEscan kinase binding assay (Eurofins/DiscoveRx), % Ctrl
- conditionSet: 1 μM; EGFR
testReadout: % Ctrl, EGFR (% Ctrl)
One number for each entry, in % Ctrl.

Example entries begin here.
>>> print(df.to_string())
                       smilesrepresentation   testreadout  quantitativereadout
0  Cc1cc2c([nH]1)/C=C1\C(=O)Nc3cnc(cc31)-c1cnn(C)c1COCCNC2=O  % Ctrl, EGFR                   98
1  Cc1cc2c([nH]1)/C=C1\C(=O)Nc3ccc(cc31)-c1ccnn1CCNCCNC2=O  % Ctrl, EGFR                   61

Record % Ctrl, EGFR per entry; entries follow.
1. Cc1cc2c([nH]1)/C=C1\C(=O)Nc3ccc(nc31)-c1ccccc1OCCCNC2=O
2. Cc1cc2c([nH]1)/C=C1\C(=O)Nc3cc(Cl)c(cc31)OCCO[C@@H](C(=O)NC1CNC1)CN(C)C2=O

stdout:
64
99

---

- targetUnderTest: kinases (Homo sapiens, UniProt P36888, D835H)
- Construct: purchased Eurofins/DiscoveRx; host or cells: E. coli BL21-derived host (T7 phage display) for most kinases; HEK-293 for the rest
- Sequence (P36888 27-993 D835H): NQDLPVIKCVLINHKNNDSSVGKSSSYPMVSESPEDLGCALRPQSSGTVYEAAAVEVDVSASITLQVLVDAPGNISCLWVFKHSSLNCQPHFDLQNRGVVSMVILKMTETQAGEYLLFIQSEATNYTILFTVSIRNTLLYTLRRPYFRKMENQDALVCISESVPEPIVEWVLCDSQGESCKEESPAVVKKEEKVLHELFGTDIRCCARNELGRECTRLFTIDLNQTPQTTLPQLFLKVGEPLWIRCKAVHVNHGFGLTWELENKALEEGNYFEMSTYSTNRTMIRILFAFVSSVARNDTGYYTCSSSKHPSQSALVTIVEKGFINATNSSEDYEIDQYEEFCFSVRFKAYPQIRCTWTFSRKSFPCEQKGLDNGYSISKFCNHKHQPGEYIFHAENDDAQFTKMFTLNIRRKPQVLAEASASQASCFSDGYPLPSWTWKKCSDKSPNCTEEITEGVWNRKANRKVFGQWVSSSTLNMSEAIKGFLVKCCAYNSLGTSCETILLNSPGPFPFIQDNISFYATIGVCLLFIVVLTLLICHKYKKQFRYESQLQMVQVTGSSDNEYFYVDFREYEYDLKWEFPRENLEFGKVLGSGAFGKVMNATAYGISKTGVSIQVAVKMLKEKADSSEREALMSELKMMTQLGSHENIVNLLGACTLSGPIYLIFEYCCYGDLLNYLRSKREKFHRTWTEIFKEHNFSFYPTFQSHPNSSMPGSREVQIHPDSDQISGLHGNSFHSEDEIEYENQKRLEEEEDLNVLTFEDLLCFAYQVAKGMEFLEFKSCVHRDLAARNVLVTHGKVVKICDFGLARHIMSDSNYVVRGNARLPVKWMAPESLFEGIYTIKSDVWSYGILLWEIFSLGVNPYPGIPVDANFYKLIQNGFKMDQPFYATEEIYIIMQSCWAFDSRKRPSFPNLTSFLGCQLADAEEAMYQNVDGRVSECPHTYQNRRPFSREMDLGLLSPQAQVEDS
- experimentNotes: KINOMEscan kinase binding assay (Eurofins/DiscoveRx), % Ctrl
- conditionSet: 1 μM; FLT3(D835H)
Please respond with 1 when measured % Ctrl, FLT3(D835H) is strictly beneath 40 % Ctrl, and with 0 in all other cases.

Observe how each entry below is paired with its result.
>>> print(df.to_string())
                                   molecule  discretelabel
0  Cc1cc2c([nH]1)/C=C1\C(=O)Nc3ccc(cc31)-c1c(C)n[nH]c1CNCCN(C)C2=O [Ex. 127]              1
1  Cc1cc2c([nH]1)/C=C1\C(=O)Nc3ccc(cc31)CN(C)C(=O)COCCNC2=O [Ex.111]              1
2  Cc1cc2c([nH]1)/C=C1\C(=O)Nc3ccc(cc31)-c1c(noc1C)COCCN(C)C2=O [Ex. 128]              1
3  Cc1cc2c([nH]1)/C=C1\C(=O)Nc3cc(Cl)c(cc31)OCCO[C@@H](C(=O)N(C)C)CN(C)C2=O [Ex. 137]              0
4  Cc1cc2c([nH]1)/C=C1\C(=O)Nc3ccc(cc31)-c1ccnn1CCOCCNC2=O [Ex.39]              0
5  Cc1cc2c([nH]1)/C=C1\C(=O)Nc3ccc(cc31)-c1ccnn1CCOCCN(C)C2=O [Ex. 41]              1

stdin: API: query returns whether the molecule falls strictly under 40 % Ctrl in % Ctrl, FLT3(D835H). Query: Cc1cc2c([nH]1)/C=C1\C(=O)Nc3cc(Cl)c(cc31)OCCO[C@@H](C(=O)N[C@@H]1CCNC1)CN(C)C2=O [Ex. 136]
stdout: 1

stdin: API: query returns whether the molecule falls strictly under 40 % Ctrl in % Ctrl, FLT3(D835H). Query: Cc1cc2c([nH]1)/C=C1\C(=O)Nc3ccc(nc31)-c1ccccc1OCCCNC2=O [Ex.22]
stdout: 0

stdin: API: query returns whether the molecule falls strictly under 40 % Ctrl in % Ctrl, FLT3(D835H). Query: Cc1cc2c([nH]1)/C=C1\C(=O)Nc3ccc(cc31)-c1ccnn1CCNCCNC2=O [Ex. 43]
stdout: 0

stdin: API: query returns whether the molecule falls strictly under 40 % Ctrl in % Ctrl, FLT3(D835H). Query: Cc1cc2c([nH]1)/C=C1\C(=O)Nc3cnc(nc31)N(C)CCCOCCN(C)C2=O [Ex.71]
stdout: 0
